All figures here come from patent US20210198277A1.

# targetOrSystem: human EHMT2 913-1193 (Homo sapiens)
# Construct: recombinant purified human EHMT2 913-1193, Viva; purchased Viva
# Sequence (Q96KQ7 913-1193): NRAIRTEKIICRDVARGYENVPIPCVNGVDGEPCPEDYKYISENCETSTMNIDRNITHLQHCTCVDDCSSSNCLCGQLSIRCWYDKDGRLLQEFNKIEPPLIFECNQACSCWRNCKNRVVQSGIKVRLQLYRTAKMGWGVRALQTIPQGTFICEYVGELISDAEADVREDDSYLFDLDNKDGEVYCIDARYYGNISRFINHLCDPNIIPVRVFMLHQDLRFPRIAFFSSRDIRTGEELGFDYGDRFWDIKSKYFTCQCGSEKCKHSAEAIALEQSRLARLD
# assayProtocol: EHMT2 enzyme assay on histone peptide substrate (EHMT2 PEP)
# Format: biochemical
# recordedConditions: Table VI; read-out: EHMT2 PEP IC50
pIC50: −log10 of the molar value.
measurementKind: pIC50

The following compounds have reported results that may help.
COc1cc2c(C3CCOCC3)cc(-c3cn[nH]c3)nc2cc1OCCCN1CCCC1    5.00 to 6.00
COc1cc2c(C3CCN(CC(F)(F)F)CC3)nc(C)nc2cc1OCCCN1CCCC1    < 5.00
CNc1nc(C2CCN(C3CCOC3)CC2)c2cc(OC)c(OCCCN3CCCC3)cc2n1 (stereo not drawn)    > 7.00
CNc1nc(C2CCN(C)C2)c2cc(OC)c(OCCCN3CCCC3)cc2n1 (stereo not drawn)    6.00 to 7.00
CNc1cc(C2CCN(C3CCOCC3)CC2)c2cc(OC)c(OCCCN3CCCC3)cc2n1    > 7.00
CNc1cc(C)nc(Nc2ccc(OC)c(C#CC3CCCN3C)c2)n1 (stereo not drawn)    > 7.00

Then there is this compound:
So, CCN1CC(COc2cc3nc(NC)nc(C4CCN(C)CC4)c3cc2OC)C1 ? Its pIC50 was 6.00 to 7.00
